System: D283 medulloblastoma cells
experimental_details: Cancer cell viability, CellTiter-Glo, D283
Type: cell-based
reported_conditions: D283, 72 h, read-out: D283, IC50

- record_smiles: "Cc1sc2c(c1C)C(c1ccc(Cl)cc1)=N[C@@H](CC(=O)NCC(=O)O)c1nnc(C)n1-2"
  IC50: "> 8.85 µM"

----------
target_or_test_system: BRD2(BD2) (Homo sapiens)
Sequence (P25440 344-453 limits assumed): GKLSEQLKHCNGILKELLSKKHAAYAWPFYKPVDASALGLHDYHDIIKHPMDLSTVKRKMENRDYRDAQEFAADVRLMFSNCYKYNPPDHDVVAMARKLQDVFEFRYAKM
experimental_details: TR-FRET binding assay, BRD2
pIC50: −log10 of the molar value.

- record_smiles: "Cc1sc2c(c1C)C(c1ccc(Cl)cc1)=N[C@@H](CC(=O)Nc1nccs1)c1nnc(C)n1-2"
  pIC50: 8.59

----------
Attribute: solubility at 18 h
experimental_details: physchem
reported_conditions: phosphate buffer, pH 7.4
assay_endpoint: solubility at 18 h (µM)

- molecule: "Cc1sc2c(c1C)C(c1ccc(Cl)cc1)=N[C@@H](CC(=O)NCc1c[nH]nn1)c1nnc(C)n1-2 [1d]"
  observed: 57.4
- molecule: "Cc1sc2c(c1C)C(c1ccc(Cl)cc1)=N[C@@H](CC(=O)NCc1ccccc1)c1nnc(C)n1-2 [1g]"
  observed: 34.1
- molecule: "Cc1sc2c(c1C)C(c1ccc(Cl)cc1)=N[C@@H](CC(=O)NCc1cn(C)cn1)c1nnc(C)n1-2 [1f]"
  observed: 65.7
- molecule: "Cc1sc2c(c1C)C(c1ccc(Cl)cc1)=N[C@@H](CC(=O)NCC(=O)O)c1nnc(C)n1-2 [1l]"
  observed: 66.4
- molecule: "Cc1sc2c(c1C)C(c1ccc(Cl)cc1)=N[C@@H](CC(=O)NCc1ccccn1)c1nnc(C)n1-2 [1k]"
  observed: 72.5
- molecule: "Cc1sc2c(c1C)C(c1ccc(Cl)cc1)=N[C@@H](CC(=O)NCCO)c1nnc(C)n1-2 [1n]"
  observed: 76.1
- molecule: "COC(=O)C(Cc1c[nH]cn1)NC(=O)C[C@@H]1N=C(c2ccc(Cl)cc2)c2c(sc(C)c2C)-n2c(C)nnc21 (stereo partly drawn) [1j]"
  observed: 68.4
- molecule: "Cc1sc2c(c1C)C(c1ccc(Cl)cc1)=N[C@@H](CC(=O)Nc1nccs1)c1nnc(C)n1-2 [1o]"
  observed: 12.4
- molecule: "Cc1sc2c(c1C)C(c1ccc(Cl)cc1)=N[C@@H](CC(=O)NCc1cn(C)nn1)c1nnc(C)n1-2 [1e]"
  observed: 80.8

----------
target_or_test_system: BRD2 (BD1) (Homo sapiens)
Sequence (P25440 74-180 limits assumed): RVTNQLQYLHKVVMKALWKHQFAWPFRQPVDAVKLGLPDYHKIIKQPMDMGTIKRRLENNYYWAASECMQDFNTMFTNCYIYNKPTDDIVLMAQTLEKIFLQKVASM
experimental_details: TR-FRET binding assay, BRD2
Attribute: IC50

- record_smiles: "Cc1sc2c(c1C)C(c1ccc(Cl)cc1)=N[C@@H](CC(=O)Nc1nncs1)c1nnc(C)n1-2"
  IC50 / nM: 1.6
- record_smiles: "Cc1sc2c(c1C)C(c1ccc(Cl)cc1)=N[C@@H](CC(=O)NCc1c[nH]nn1)c1nnc(C)n1-2"
  IC50 / nM: 8.6
- record_smiles: "Cc1sc2c(c1C)C(c1ccc(Cl)cc1)=N[C@@H](CC(=O)Nc1nccs1)c1nnc(C)n1-2"
  IC50 / nM: 10.9
